Each record here notes measured log10 of IC50.
System: HBeAg
Experiment: In vitro inhibition of HBV: HBeAg in HepG2.2.15 cells by ELISA
Assay type: cell-based
Conditions: Hepatitis B virus, HepG2.2.15, read-out: IC50 (μM) (HBeAg)
Field: value | Transform: log10 | Quantity: IC50 | Unit: µM

Consider the following illustrative entries.
[
  {
    "Compound": "[N-]=[N+]=N[C@]1(CO)O[C@@H](n2ccc(N[C@@H](Cc3cc4ccccc4[nH]3)C(=O)O)nc2=O)C(F)C1O (stereo partly shown)",
    "log10 of IC50": -0.44
  },
  {
    "Compound": "COC(=O)CC[C@H](Nc1ccn([C@@H]2O[C@@](CO)(N=[N+]=[N-])C(O)C2F)c(=O)n1)C(=O)OC (stereo partly shown)",
    "log10 of IC50": 0.79
  },
  {
    "Compound": "CNc1ccn([C@@H]2O[C@@](CO)(N=[N+]=[N-])C(O)C2F)c(=O)n1 (stereo partly shown)",
    "log10 of IC50": 1.16
  },
  {
    "Compound": "[N-]=[N+]=N[C@]1(CO)O[C@@H](n2ccc(NCC(N)=O)nc2=O)C(F)C1O (stereo partly shown)",
    "log10 of IC50": 0.79
  },
  {
    "Compound": "COC(=O)C(C)Nc1ccn([C@@H]2O[C@@](CO)(N=[N+]=[N-])C(O)C2F)c(=O)n1 (stereo partly shown)",
    "log10 of IC50": 1.33
  }
]

Field: next compound
Enquiry: Which log10 of IC50 value is on record for COC(=O)[C@H](Cc1ccccc1)Nc1ccn([C@@H]2O[C@@](CO)(N=[N+]=[N-])C(O)C2F)c(=O)n1 (stereo partly shown) ?
Return: 0.64
